Tested on: Candida albicans
method: Fungicidal activity against Candida albicans MTCC 227
Assay type: functional
reported.metric: MFC

[in] // lookup MFC for `O=S(=O)(O)c1cc(O)c(/N=C/c2ccc(Cl)cc2Cl)c2ccccc12`
[out] > 0.14 mM

[in] // lookup MFC for `O=[N+]([O-])c1cccc(/C=N/c2c(O)cc(S(=O)(=O)O)c3ccccc23)c1`
[out] > 0.14 mM

[in] // lookup MFC for `COc1cc(/C=N/c2c(O)cc(S(=O)(=O)O)c3ccccc23)cc(OC)c1OC`
[out] > 0.15 mM

[in] // lookup MFC for `O=S(=O)(O)c1cc(O)c(/N=C/c2cccc(O)c2)c2ccccc12`
[out] > 0.13 mM

[in] // lookup MFC for `O=S(=O)(O)c1cc(O)c(/N=C/c2ccc(Cl)cc2)c2ccccc12`
[out] > 0.14 mM

[in] // lookup MFC for `O=S(=O)(O)c1cc(O)c(/N=C/c2ccccc2Cl)c2ccccc12`
[out] > 0.14 mM

[in] // lookup MFC for `COc1cccc(/C=N/c2c(O)cc(S(=O)(=O)O)c3ccccc23)c1O`
[out] > 0.14 mM

[in] // lookup MFC for `O=S(=O)(O)c1cc(O)c(/N=C/C=C/c2ccccc2)c2ccccc12`
[out] > 0.14 mM

[in] // lookup MFC for `O=S(=O)(O)c1cc(O)c(/N=C/c2cccc(Cl)c2)c2ccccc12`
[out] > 0.14 mM

[in] // lookup MFC for `O=Cc1ccc(/C=N/c2c(O)cc(S(=O)(=O)O)c3ccccc23)cc1`
[out] > 0.14 mM

[in] // lookup MFC for `COc1ccc(/C=N/c2c(O)cc(S(=O)(=O)O)c3ccccc23)cc1`
[out] > 0.13 mM

[in] // lookup MFC for `COc1cc(/C=N/c2c(O)cc(S(=O)(=O)O)c3ccccc23)ccc1O`
[out] > 0.16 mM

[in] // lookup MFC for `COc1cccc(/C=N/c2c(O)cc(S(=O)(=O)O)c3ccccc23)c1`
[out] > 0.12 mM

[in] // lookup MFC for `COc1ccc(/C=N/c2c(O)cc(S(=O)(=O)O)c3ccccc23)cc1OC`
[out] > 0.15 mM

[in] // lookup MFC for `CCOc1cc(/C=N/c2c(O)cc(S(=O)(=O)O)c3ccccc23)ccc1O`
[out] > 0.13 mM

[in] // lookup MFC for `COc1ccccc1/C=N/c1c(O)cc(S(=O)(=O)O)c2ccccc12`
[out] > 0.13 mM

[in] // lookup MFC for `O=CCCC/C=N/c1c(O)cc(S(=O)(=O)O)c2ccccc12`
[out] > 0.13 mM

[in] // lookup MFC for `O=S(=O)(O)c1cc(O)c(/N=C/c2ccccc2)c2ccccc12`
[out] > 0.13 mM

====

System: Staphylococcus aureus
method: Bactericidal activity against Staphylococcus aureus MTCC 2901
Type: functional
Give measured MBC for each item. Keep answers brief.
Please reply with the bare figure in µM and do not write the unit itself.

[in] // lookup MBC for `COc1cccc(/C=N/c2c(O)cc(S(=O)(=O)O)c3ccccc23)c1`
[out] 120

[in] // lookup MBC for `O=S(=O)(O)c1cc(O)c(/N=C/c2cccc(Cl)c2)c2ccccc12`
[out] 140

[in] // lookup MBC for `CCOc1cc(/C=N/c2c(O)cc(S(=O)(=O)O)c3ccccc23)ccc1O`
[out] 130

[in] // lookup MBC for `CCn1cc(C(=O)O)c(=O)c2cc(F)c(N3CCNCC3)cc21`
[out] 19

[in] // lookup MBC for `COc1cc(/C=N/c2c(O)cc(S(=O)(=O)O)c3ccccc23)ccc1O`
[out] 160
